This collection of values is drawn from PubChem BioAssay (NCI).

Test system: HOP-62 NSCLC
protocol notes: NCI tumour cell line growth inhibition, 48 h
assay readout: TGI

Known TGI results, listed for orientation:
CC1(C)OC[C@@]2([C@@H]3CC[C@@H](C3)C2(C)C)N1O	> 100 µM
NNC(=O)CCCCCCCC(=O)O	> 100 µM
COc1ccc(S(=O)Cc2cc(OC)ccc2OC)cc1 (stereo unspecified)	> 100 µM

input: State TGI (HOP-62 NSCLC) of `O=S(=O)(O)Nc1ccc(-c2nc3ccccc3s2)cc1Cl` .
output: > 100 µM

input: State measured TGI of the molecule `COc1ccc(C2=C(c3cn(C)c4ccccc34)C(=O)NC2=O)cc1OC` with HOP-62 NSCLC.
output: > 25 µM

input: Send back HOP-62 NSCLC TGI of `CCS(=O)(=O)c1ccc(OC)c(Nc2nccc(N(C)c3ccc4c(C)[nH]nc4c3)n2)c1` only.
output: > 25 µM

* * *

Tested on: SK-MEL-28 melanoma
protocol notes: NCI tumour cell line growth inhibition, 48 h
Items are presented alongside their recorded TGI.

Use the examples below as a reference point.
CCCCCC(/C=N/NC(N)=S)C(O)(C(F)(F)F)C(F)(F)F (stereo not drawn)	> 10 µM
C/C=C/OC1C(C2COC(C)(C)O2)OC2OC(C)(C)OC21 (stereo not drawn)	> 100 µM
CSc1cc(Cl)c(C)cc1S(=O)(=O)NC(=O)NNc1ccccn1	> 100 µM
CCC(/C=C/c1ccccc1)=N\NC(=S)N/N=C(/C=C/c1ccccc1)CC	> 100 µM
COc1cccc(/C=C/C(=O)c2cc3c(N)c(C(=O)Nc4cccc(Cl)c4C)sc3nc2C)c1	4.7 µM

input: Indicate its recorded TGI; the molecule in question is `COc1cc(/C=C/C(=O)O)ccc1O`
output: > 100 µM

input: Input `CO/N=C1/NC(=O)/C(=C/c2ccc3ncccc3c2)S1` , output reported TGI.
output: > 25 µM

input: Tell us which TGI value is on record for `CCN(CC)C(=S)N/N=C(\C)c1ccccc1O`
output: > 100 µM

input: Determine its reported TGI: `COc1ccc(C=NC23CC4CC(CC(C4)C2)C3)cc1`
output: > 100 µM

input: Recall and state the measured TGI for CC(=O)O[C@@H]1CC(C)C2CC2C2=C(C(O)OC2O)[C@@H]1C(C)CCC=C(C)C (stereo partly drawn) .
output: > 100 µM

* * *

Tested on: HS 578T breast
protocol notes: NCI tumour cell line growth inhibition, 48 h
Rule: TGI under 40 µM gives Not fulfilled, otherwise Fulfilled.

Sample answers from the record:
c1cncc(CNc2ccccc2-c2nnc(Nc3ccc4c(c3)OCCO4)o2)c1	Fulfilled
CO/N=C1/C(n2[nH]c(=O)n(-c3ccccc3)c2=O)C2C=CC1n1c(=O)n(-c3ccccc3)c(=O)n12 (centres undefined)	Fulfilled
Cc1nc(Nc2ccc(F)c(Cl)c2)sc1C(=O)O	Not fulfilled
Cc1c(Cl)cccc1NC(=O)c1sc2nc3c(cc2c1N)CCCCCC3	Not fulfilled
Cc1cc(S(=O)(=O)NC#N)c(S/C(=N\Nc2ccc([N+](=O)[O-])cc2)c2ccccc2)cc1Cl	Fulfilled

input: Dear colleague, could you confirm whether `COc1cc(/C=C/C(=O)O)ccc1O` has TGI at or above 40 µM?
output: Fulfilled

input: Determine whether measured TGI meets or exceeds 40 µM for `COc1ccc2c(-c3ccc(O)cc3)c(Oc3ccccc3)c(=O)oc2c1`
output: Fulfilled

input: For this compound, is measured TGI 40 µM or higher? `COc1ccc(NC(C)=O)c(C(=O)CCNC(C)=O)c1`
output: Fulfilled

input: Entry `NC(=O)C1=C(c2ccccc2)c2ccccc2C1=O` : is its TGI no less than 40 µM?
output: Fulfilled

input: Textbook exercise: given the entry `N#Cc1nsnc1-c1nc(-c2nsnc2C#N)nc(-c2nsnc2C#N)n1` , state whether its TGI is greater than or equal to 40 µM.
output: Fulfilled

input: Would you say CC1(C)OC2CN(C(=O)OCc3ccccc3)C(CO)C2O1 (centres undefined) shows TGI at minimum 40 µM?
output: Fulfilled

input: API: above_or_equal(metric=TGI, cutoff=40 µM) for item `COc1cc(/C=C2\CCc3cc(OC)c(OC)cc3C2=O)cc(OC)c1`
output: Fulfilled

* * *

Tested on: SK-MEL-2 melanoma
protocol notes: NCI tumour cell line growth inhibition, 48 h; in the data active means GI50 below about 0.43 µM; inactive means the rest
Bench note: report the call from true (1) = active, false (0) = inactive

Example entries and their recorded answers appear below.
Fc1ccc(-c2nnc3sc(-c4cccc(Cl)c4)nn23)cc1Cl	false (0)
Cc1cc(S(=O)(=O)NC#N)c(S/C(=N\Nc2ccc([N+](=O)[O-])cc2)c2ccccc2)cc1Cl	false (0)
Cc1ccc(C(=O)N/N=C/c2cccc(Oc3ccccc3)c2)cn1	false (0)

input: Hi, sorry to bother you, what did the test record for `O=C(O)c1ccc(NS(=O)(=O)c2cccc3cccnc23)cc1` ?
output: false (0)

input: Can you look up the reported call for `Cc1cc2c(C(N)=O)cccc2n1-c1nc2c(c(NCc3ccccc3)n1)CCCN2` for me?
output: true (1)

input: Assay result, entry `C=C(CN1CCN(c2ccccc2F)CC1)c1ccc(C(=O)Nc2ccccc2N)cc1` — outcome?
output: false (0)

input: Per the assay record, what outcome was assigned to `COc1ccc(C2=C(c3cn(C)c4ccccc34)C(=O)NC2=O)cc1OC` ?
output: false (0)

input: Record lookup: outcome of this test for `C#CC[C@H](c1nc2cc(Cl)ccc2c(=O)n1Nc1ccccc1)N(CCCN)C(=O)c1cccc(Cl)c1F` ?
output: true (1)

* * *

Reported TGI is given for each of the following compounds.
Test system: SN12C renal
protocol notes: NCI tumour cell line growth inhibition, 48 h

Sample records with TGI:
O=C(Nc1ccncc1)C(=O)c1cn(S(=O)(=O)c2ccccc2F)c2ccccc12	> 90.6 µM
C=CCN=C1N=C(CC(=O)OCC)CS1	> 100 µM
CSCCCNC(=O)c1csc([C@@H](CSC)NC(=O)CCNC(=O)[C@@H](NC(=O)OCC(Br)(Br)Br)C(C)O)n1 (stereo not given in full)	> 100 µM

input: Lab note: SN12C renal assay, enter TGI for Cc1ccc(S(=O)(=O)OCC23CCC(C4CC42)C2CC23)cc1 (stereo not given) here
output: > 100 µM

input: Consider the compound `Fc1ccc(-c2nnc3sc(-c4cccc(Cl)c4)nn23)cc1Cl` tested on SN12C renal; state its TGI.
output: > 100 µM

* * *

Tested on: SK-MEL-28 melanoma
protocol notes: NCI tumour cell line growth inhibition, 48 h
Let's look at some compounds and their measured TGI.

The examples below pair each entry with its known result.
CCCCN(CCCC)c1ccc(N=Nc2ccc(S(=O)(=O)O)cc2)cc1	> 100 µM
Cc1cc(-c2nc3ccc(O)cc3s2)ccc1N	> 100 µM

Okay, now this compound:
input: Provide TGI, system SK-MEL-28 melanoma, entry CC1(C)OC2CN(C(=O)OCc3ccccc3)C(CO)C2O1 (stereo not drawn)
output: > 100 µM

* * *

Tested on: OVCAR-8 ovarian
protocol notes: NCI tumour cell line growth inhibition, 48 h
assay readout: TGI

Below, 7 molecules whose answers are already recorded.
O[C@]12CCCC[C@H]1CCC2	> 100 µM
Cc1cc(S(=O)(=O)NC#N)c(S/C(=N\Nc2ccc([N+](=O)[O-])cc2)c2ccccc2)cc1Cl	42.8 µM
C=CC1(CBr)CCC(C(C)(C)Br)O1 (stereo not drawn)	9.45 µM
Nc1ccccc1Sc1ccc(Cl)cc1	> 100 µM
CCCCCC(/C=N/NC(N)=S)C(O)(C(F)(F)F)C(F)(F)F (stereo not drawn)	> 10 µM
O=C(Nc1nccs1)c1cc(C2=CC=CC([N+](=O)[O-])C=C2)nc(=S)[nH]1 (stereo not drawn)	> 100 µM
Cc1ccc(NC2=C(Sc3ccc(Cl)cc3)C(=O)N(Cc3ccccc3)C2=O)cc1Cl	34.8 µM

input: Tell me measured TGI for `CCOC(=O)C(Cc1c[nH]c2cc([N+](=O)[O-])ccc12)(NC(C)=O)C(=O)OCC` please.
output: > 1000 µM

* * *

Test system: HOP-92 NSCLC
protocol notes: NCI tumour cell line growth inhibition, 48 h
assay readout: GI50

Example compounds with recorded GI50:
Fc1ccc(-c2nnc3sc(-c4cccc(Cl)c4)nn23)cc1Cl	33700 nM
Cc1nc(NC(=S)Nc2ccc(F)cc2)sc1C(=O)NNC(=S)Nc1ccc(F)cc1	1490 nM
NC(=NC1CCCCCC1)c1ccc(N2CCN(c3ccc(C(N)=NC4CCCCCC4)cc3)CC2)cc1	8290 nM
Cn1c2ccccc2c2nnc(N/N=C/c3ccccn3)nc21	413 nM

Read the next record carefully.
input: Recall and state the measured GI50 for `Cc1cc2c(C(N)=O)cccc2n1-c1nc2c(c(NCc3ccccc3)n1)CCCN2` .
output: 261 nM

* * *

System: UO-31 renal
protocol notes: NCI tumour cell line growth inhibition, 48 h
We begin with a simple list: items and their reported TGI.

input: State, for UO-31 renal, measured TGI of the compound listed here: `COc1ccc(NC(C)=O)c(C(=O)CCNC(C)=O)c1`
output: > 100 µM

input: // fetch TGI for `CC(C)(N=NC(C)(C)C1=NCCN1)C1=NCCN1` ; system: UO-31 renal
output: > 100 µM

input: Report value: TGI, system: UO-31 renal, compound: `Cc1nn2c(/C=C3/C(=O)Nc4ccc(Cl)cc43)c(-c3ccccc3)nc2s1`
output: 13.2 µM

input: Determine reported TGI for `CCOC(=O)C(Cc1c[nH]c2cc([N+](=O)[O-])ccc12)(NC(C)=O)C(=O)OCC` ; test system: UO-31 renal.
output: > 1000 µM
